# testMethodNotes: UV thermal melting of helix 31 RNA hairpin constructs (van't Hoff analysis)
# Type: physicochemical
# conditionParameters: Table 2; 15 mM NaCl, 20 mM sodium cacodylate, 0.5 mM Na2EDTA, pH 7.0
Strand notation (5' to 3'): a small letter for the sugar, then the base; units joined by * are phosphorothioate-linked, units joined directly phosphodiester-linked; [ ] holds rarer units or linkages, { } end groups; capitals alone tell only the bases. [m2G] = N2-methylguanosine (ribo); [5mC] = 5-methylcytosine; r = 2'-OH (RNA)
assayReadout: ΔH° (kcal/mol)
Please state the figure in kcal/mol; there is no need to write the unit.

Task: Provide one value: measured ΔH° of ECh31M2G: 18-nt helix 31 RNA hairpin of E. coli 16S rRNA with m2G966 (rGrUrUrCrGrArUr[m2G]rCrArArCrGrCrGrArArC)
Output: -41.9

Task: Provide one value: measured ΔH° of ECh31UNMOD: 18-nt unmodified RNA hairpin representing helix 31 (U960-A975) of E. coli 16S rRNA (GUUCGAUGCAACGCGAAC; unmodified RNA)
Output: -44.1

Task: Provide one value: measured ΔH° of ECh31M5C: 18-nt helix 31 RNA hairpin of E. coli 16S rRNA with m5C967 (GUUCGAUGCAACGCGAAC; RNA, [5mC] at 9, all phosphodiester, methylation of C not given here)
Output: -40.5

Task: Provide one value: measured ΔH° of ECh31WT: doubly modified (m2G966, m5C967) h31 analogue, wild-type sequence of E. coli 16S rRNA helix 31 (GUUCGAUGCAACGCGAAC; RNA, [m2G] at 8, [5mC] at 9, all phosphodiester, methylation of C not given here)
Output: -37.5

----------
Please go through the items and note down their ΔS°.
# testMethodNotes: UV thermal melting of helix 31 RNA hairpin constructs (van't Hoff analysis)
# Assay type: physicochemical
# conditionParameters: Table 2; 15 mM NaCl, 20 mM sodium cacodylate, 0.5 mM Na2EDTA, pH 7.0
Strand notation (5' to 3'): a small letter for the sugar, then the base; units joined by * are phosphorothioate-linked, units joined directly phosphodiester-linked; [ ] holds rarer units or linkages, { } end groups; capitals alone tell only the bases. [m2G] = N2-methylguanosine (ribo); [5mC] = 5-methylcytosine; r = 2'-OH (RNA)
Please state the figure in cal/K · mol; there is no need to write the unit.

Task: Provide one value: measured ΔS° of ECh31M2G: 18-nt helix 31 RNA hairpin of E. coli 16S rRNA with m2G966 (rGrUrUrCrGrArUr[m2G]rCrArArCrGrCrGrArArC)
Output: −127.5

Task: Provide one value: measured ΔS° of ECh31WT: doubly modified (m2G966, m5C967) h31 analogue, wild-type sequence of E. coli 16S rRNA helix 31 (GUUCGAUGCAACGCGAAC; RNA, [m2G] at 8, [5mC] at 9, all phosphodiester, methylation of C not given here)
Output: −114.4

Task: Provide one value: measured ΔS° of ECh31UNMOD: 18-nt unmodified RNA hairpin representing helix 31 (U960-A975) of E. coli 16S rRNA (GUUCGAUGCAACGCGAAC; unmodified RNA)
Output: −133.8

Task: Provide one value: measured ΔS° of ECh31M5C: 18-nt helix 31 RNA hairpin of E. coli 16S rRNA with m5C967 (GUUCGAUGCAACGCGAAC; RNA, [5mC] at 9, all phosphodiester, methylation of C not given here)
Output: −123.3

----------
# testMethodNotes: UV thermal melting of helix 31 RNA hairpin constructs (van't Hoff analysis)
# Assay type: physicochemical
# conditionParameters: Table 2; 15 mM NaCl, 20 mM sodium cacodylate, 0.5 mM Na2EDTA, pH 7.0
Strand notation (5' to 3'): a small letter for the sugar, then the base; units joined by * are phosphorothioate-linked, units joined directly phosphodiester-linked; [ ] holds rarer units or linkages, { } end groups; capitals alone tell only the bases. [m2G] = N2-methylguanosine (ribo); [5mC] = 5-methylcytosine; r = 2'-OH (RNA)
assayReadout: ΔG°37 (kcal/mol)
Please state the figure in kcal/mol; there is no need to write the unit.

Task: Provide one value: measured ΔG°37 of ECh31M5C: 18-nt helix 31 RNA hairpin of E. coli 16S rRNA with m5C967 (GUUCGAUGCAACGCGAAC; RNA, [5mC] at 9, all phosphodiester, methylation of C not given here)
Output: -2.2

Task: Provide one value: measured ΔG°37 of ECh31M2G: 18-nt helix 31 RNA hairpin of E. coli 16S rRNA with m2G966 (rGrUrUrCrGrArUr[m2G]rCrArArCrGrCrGrArArC)
Output: -2.4

Task: Provide one value: measured ΔG°37 of ECh31UNMOD: 18-nt unmodified RNA hairpin representing helix 31 (U960-A975) of E. coli 16S rRNA (GUUCGAUGCAACGCGAAC; unmodified RNA)
Output: -2.6

Task: Provide one value: measured ΔG°37 of ECh31WT: doubly modified (m2G966, m5C967) h31 analogue, wild-type sequence of E. coli 16S rRNA helix 31 (GUUCGAUGCAACGCGAAC; RNA, [m2G] at 8, [5mC] at 9, all phosphodiester, methylation of C not given here)
Output: -2.1

----------
Please go through the items and note down their ΔG° 50.
# testMethodNotes: UV thermal melting of helix 31 RNA hairpin constructs (van't Hoff analysis)
# Assay type: physicochemical
# conditionParameters: 15 mM NaCl, 20 mM sodium cacodylate, 0.5 mM Na2EDTA, pH 7.0; standard error est. 3% (±0.2 kcal/mol)
Marks after values point to notes of the source that are not given here. Strand notation (5' to 3'): a small letter for the sugar, then the base; units joined by * are phosphorothioate-linked, units joined directly phosphodiester-linked; [ ] holds rarer units or linkages, { } end groups; capitals alone tell only the bases. [m2G] = N2-methylguanosine (ribo); [5mC] = 5-methylcytosine; r = 2'-OH (RNA)

Task: Provide one value: measured ΔG° 50 of ECh31M5C: 18-nt helix 31 RNA hairpin of E. coli 16S rRNA with m5C967 (GUUCGAUGCAACGCGAAC; RNA, [5mC] at 9, all phosphodiester, methylation of C not given here)
Output: −0.6^a kcal/mol

Task: Provide one value: measured ΔG° 50 of ECh31WT: doubly modified (m2G966, m5C967) h31 analogue, wild-type sequence of E. coli 16S rRNA helix 31 (GUUCGAUGCAACGCGAAC; RNA, [m2G] at 8, [5mC] at 9, all phosphodiester, methylation of C not given here)
Output: −0.5^a kcal/mol

Task: Provide one value: measured ΔG° 50 of ECh31UNMOD: 18-nt unmodified RNA hairpin representing helix 31 (U960-A975) of E. coli 16S rRNA (GUUCGAUGCAACGCGAAC; unmodified RNA)
Output: −0.9^a kcal/mol

Task: Provide one value: measured ΔG° 50 of ECh31M2G: 18-nt helix 31 RNA hairpin of E. coli 16S rRNA with m2G966 (rGrUrUrCrGrArUr[m2G]rCrArArCrGrCrGrArArC)
Output: −0.7^a kcal/mol

----------
# testMethodNotes: UV thermal melting of helix 31 RNA hairpin constructs (van't Hoff analysis)
# Assay type: physicochemical
# conditionParameters: Table 2; 15 mM NaCl, 20 mM sodium cacodylate, 0.5 mM Na2EDTA, pH 7.0
Strand notation (5' to 3'): a small letter for the sugar, then the base; units joined by * are phosphorothioate-linked, units joined directly phosphodiester-linked; [ ] holds rarer units or linkages, { } end groups; capitals alone tell only the bases. [m2G] = N2-methylguanosine (ribo); [5mC] = 5-methylcytosine; r = 2'-OH (RNA)
Please go through the items and note down their Tm.
Please state the figure in °C; there is no need to write the unit.

Task: Provide one value: measured Tm of ECh31WT: doubly modified (m2G966, m5C967) h31 analogue, wild-type sequence of E. coli 16S rRNA helix 31 (GUUCGAUGCAACGCGAAC; RNA, [m2G] at 8, [5mC] at 9, all phosphodiester, methylation of C not given here)
Output: 56

Task: Provide one value: measured Tm of ECh31UNMOD: 18-nt unmodified RNA hairpin representing helix 31 (U960-A975) of E. coli 16S rRNA (GUUCGAUGCAACGCGAAC; unmodified RNA)
Output: 57

Task: Provide one value: measured Tm of ECh31M5C: 18-nt helix 31 RNA hairpin of E. coli 16S rRNA with m5C967 (GUUCGAUGCAACGCGAAC; RNA, [5mC] at 9, all phosphodiester, methylation of C not given here)
Output: 55

Task: Provide one value: measured Tm of ECh31M2G: 18-nt helix 31 RNA hairpin of E. coli 16S rRNA with m2G966 (rGrUrUrCrGrArUr[m2G]rCrArArCrGrCrGrArArC)
Output: 56
